# Emax per entry
Molecular target: binding of His-XIAP(BIR2)-avi fusion protein to GST-RIPK2 fusion protein (RIPK2/XIAP) (Homo sapiens)
Construct: made in house; host or cells: baculovirus infected Sf9 cells
Assay: RIPK2-XIAP binding competition PPI assay (TR-FRET)
Details: RIPK2/XIAP binding competition PPI assay, Amax; read-out: PPI Amax bin
Source text: The ability of selected compounds of Formula (I) to inhibit the binding of an His-XIAP(BIR2)-avi fusion protein to a GST-RIPK2 fusion protein was quantified employing the TR-FRET-based competition assay as described in the following paragraphs. […]
measured-property: Emax

compound=COc1cc2ncc(-c3cccc(NS(=O)(=O)C4CN(C(=O)OC(C)(C)C)C4)c3)n2cc1S(=O)(=O)C(C)(C)C result="> 80%"
compound=CC(C)(C)S(=O)(=O)c1cn2c(-c3cc(F)c(N)nc3F)cnc2cc1OCC1(CO)CC1 result="> 80%"
compound=CC(C)(C)S(=O)(=O)c1cn2c(-c3cc(F)c(N)nc3F)cnc2cc1OC1COC1 result="> 80%"
compound=CC(C)(C)S(=O)(=O)c1cc2c(-c3cc(Cl)c(N)nc3F)cnn2cc1OCCOP(=O)(O)O result="> 80%"
compound=COc1cc2ncc(-c3cc(F)c(OC)c(NS(=O)(=O)CC4COC4)c3)n2cc1S(=O)(=O)C(C)(C)C result="> 80%"
compound=C[C@@H](O)COc1cc2ncc(-c3cc(Cl)c(N)nc3F)n2cc1S(=O)(=O)C(C)(C)C result="> 80%"
compound=COc1cc2ncc(-c3cnc4c(c3)OCCN4)n2cc1S(=O)(=O)C(C)(C)C result="55 to 80%"
compound="COc1cc2ncc(-c3cc(F)c(OC)c(NC(C)c4cnn(C)c4)c3)n2cc1S(=O)(=O)C(C)(C)C (single isomer, unassigned)" result="> 80%"
compound="COc1cc2ncc(-c3cc(F)c(N)nc3F)n2cc1C1CCCN(C)C1=O (stereo not drawn)" result="55 to 80%"
compound=COc1cc2ncc(-c3cc(F)cc(NS(=O)(=O)c4cnn(C)c4)c3)n2cc1S(=O)(=O)C(C)(C)C result="> 80%"
compound=COc1cc2ncc(-c3cc(F)c(OC)c(NS(=O)(=O)C4(CO)CC4)c3)n2cc1S(=O)(=O)C(C)(C)C result="> 80%"
compound=COc1cc2ncc(-c3cc(F)c(N)nc3F)n2cc1S(=O)(=O)N1CCNCC1 result="> 80%"
compound=CC(C)(C)S(=O)(=O)c1cn2c(-c3cnc4[nH]ccc4n3)cnc2cc1OCCO result="< 30%"
compound=CC(C)(C)S(=O)(=O)c1cn2c(-c3cc(F)c(N)nc3F)cnc2cc1OCCN1CCNCC1 result="> 80%"
compound=C[C@@H](O)COc1cc2ncc(-c3cc(F)c(N)nc3F)n2cc1S(=O)(=O)C(C)(C)C result="> 80%"
compound=COc1cc2ncc(-c3cc(F)c(OC)c4[nH]c(CN5CC(O)C5)nc34)n2cc1S(=O)(=O)C(C)(C)C result="30 to 55%"
compound=COc1c(F)cc(-c2cnc3cc(OC[C@@H](C)O)c(S(=O)(=O)C(C)(C)C)cn23)cc1NS(C)(=O)=O result="55 to 80%"
compound=COc1cc2ncc(-c3cc(NS(=O)(=O)c4cnn(C)c4)c(OC)c(OC)c3)n2cc1N1CCCC1=O result="> 80%"
compound=COc1cc2ncc(-c3ccc4c(C)nn(C)c4c3)n2cc1S(=O)(=O)C(C)(C)C result="< 30%"
compound=COc1cc(-c2cnc3cc(OCCO)c(S(=O)(=O)C(C)(C)C)cn23)cc(NS(=O)(=O)c2cnn(C)c2)c1OC result="> 80%"
compound=C[C@@H](CO)COc1cc2ncc(-c3cc(Cl)c(N)nc3F)n2cc1S(=O)(=O)C(C)(C)C result="> 80%"
compound=CCS(=O)(=O)Nc1cc(-c2cnc3cc(OC[C@H](C)O)c(S(=O)(=O)C(C)(C)C)cn23)cc(F)c1OC result="55 to 80%"
compound=CCS(=O)(=O)Nc1cc(-c2cnc3cc(OC)c(S(=O)(=O)C(C)(C)CO)cn23)cc(Cl)c1OC result="55 to 80%"
compound=COc1cc2ncc(-c3cnn4ccccc34)n2cc1S(=O)(=O)C(C)(C)C result="< 30%"
compound=COc1cc2ncc(-c3ccc4nc(N)ccc4c3)n2cc1S(=O)(=O)C(C)(C)C result="< 30%"
compound=COc1cc2ncc(-c3cc(F)c(N)nc3F)n2cc1S(=O)(=O)C1(C)CCNCC1 result="> 80%"
compound=COc1cc2ncc(-c3cc(F)c(N)nc3F)n2cc1S(=O)(=O)C(C)(C)c1nc(C)no1 result="> 80%"
compound=COc1cc2ncc(-c3cc(F)c(OC)c(NS(=O)(=O)c4coc(C)n4)c3)n2cc1S(=O)(=O)C(C)(C)C result="30 to 55%"
compound=COc1cc2ncc(-c3cc(F)c(N)nc3F)n2cc1S(=O)(=O)c1cn[nH]c1 result="> 80%"
compound=CC(C)(C)S(=O)(=O)c1cn2c(-c3cc(F)c(N)nc3F)cnc2cc1OC[C@H]1C[C@H](O)C1 result="> 80%"

* * *

biological target: binding of His-XIAP(BIR2)-avi fusion protein to GST-RIPK2 fusion protein (RIPK2/XIAP) (Homo sapiens); construct: made in house; host or cells: baculovirus infected Sf9 cells; assay: RIPK2-XIAP binding competition PPI assay (TR-FRET); settings: RIPK2/XIAP binding competition PPI assay; read-out: PPI IC50 bin
measured-property: IC50

molecule="COc1cn2ncc(-c3cc(F)c(OC)c(NS(=O)(=O)C4(CO)CC4)c3)c2cc1S(=O)(=O)C(C)(C)C [Example 181]" result="< 1 nM"
molecule="COc1cc2ncc(-c3cc(F)c(OC)c(NS(=O)(=O)CC4CC4)c3)n2cc1S(=O)(=O)C(C)(C)C [Example 159]" result="< 1 nM"
molecule="COc1cc2ncc(-c3cc(F)c(OC)c(NS(=O)(=O)c4coc(C)n4)c3)n2cc1S(=O)(=O)C(C)(C)C [Example 293]" result="< 1 nM"
molecule="COc1cc2ncc(-c3ccc4c(N)nn(C)c4c3)n2cc1S(=O)(=O)C(C)(C)C [Example 102]" result="> 20 nM"
molecule="CC(C)(C)S(=O)(=O)c1cn2c(-c3cc(Cl)c(N)nc3F)cnc2cc1NCCO [Example 256]" result="< 1 nM"
molecule="CCS(=O)(=O)Nc1cc(-c2cnc3cc(OCCO)c(S(=O)(=O)C(C)(C)C)cn23)cc(F)c1OC [Example 224]" result="< 1 nM"
molecule="COc1cc2ncc(-c3ccc(NC(C)=O)nc3)n2cc1S(=O)(=O)C(C)(C)C [Example 8]" result="> 20 nM"
molecule="C[C@@H](O)COc1cn2ncc(-c3cc(Cl)c(N)nc3F)c2cc1S(=O)(=O)C(C)(C)C [Example 254]" result="1 to 2.5 nM"

* * *

target: binding of His-XIAP(BIR2)-avi fusion protein to GST-RIPK2 fusion protein (RIPK2/XIAP) (Homo sapiens, UniProt O43353); construct: made in house; host or cells: baculovirus infected Sf9 cells; assay: RIPK2-XIAP binding competition PPI assay (TR-FRET); conditions: PPI IC50 bin, RIPK2/XIAP binding competition PPI assay
Sequence (O43353 1-310 limits assumed): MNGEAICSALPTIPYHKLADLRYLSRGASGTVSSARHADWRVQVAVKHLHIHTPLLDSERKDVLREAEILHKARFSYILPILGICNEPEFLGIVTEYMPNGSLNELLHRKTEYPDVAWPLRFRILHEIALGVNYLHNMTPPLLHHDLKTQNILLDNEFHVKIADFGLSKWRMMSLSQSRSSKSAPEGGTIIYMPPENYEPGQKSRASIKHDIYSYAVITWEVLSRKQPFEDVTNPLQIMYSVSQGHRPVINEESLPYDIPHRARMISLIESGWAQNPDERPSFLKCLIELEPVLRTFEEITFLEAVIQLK
measured-property: IC50

compound_structure=C[C@H](CO)Oc1cc2ncc(-c3cc(F)c(N)nc3F)n2cc1S(=O)(=O)C(C)(C)C measured_property=IC50 result="2.5 to 20 nM"
compound_structure=C[C@@H](CO)Oc1cc2ncc(-c3cc(F)c(N)nc3F)n2cc1S(=O)(=O)C(C)(C)C measured_property=IC50 result="2.5 to 20 nM"
compound_structure=COc1cc2ncc(-c3cc(F)c(N)nc3F)n2cc1S(=O)(=O)C(C)(C)CN1CCN(C)CC1 measured_property=IC50 result="2.5 to 20 nM"

* * *

biological target: binding of His-XIAP(BIR2)-avi fusion protein to GST-RIPK2 fusion protein (RIPK2/XIAP) (Homo sapiens, UniProt O43353); construct: made in house; host or cells: baculovirus infected Sf9 cells; assay: RIPK2-XIAP binding competition PPI assay (TR-FRET); conditions: RIPK2/XIAP binding competition PPI assay; read-out: PPI IC50 bin
pIC50: −log10 of the molar value.
measured-property: pIC50

compound="COc1cc2ncc(-c3cc(F)c(N)nc3F)n2cc1S(=O)(=O)C(C)(C)CN1CCOCC1 [Example 168]" measured_property=pIC50 result="7.70 to 8.60"
compound="CC(C)(C)C(C)(O)c1cn2c(-c3cc(F)c(N)nc3F)cnc2cc1OCCO (stereo not shown) [Example 189]" measured_property=pIC50 result="< 7.70"
compound="COc1cc2ncc(-c3cc(F)cc(NS(=O)(=O)c4cnn(C)c4)c3)n2cc1S(=O)(=O)C(C)(C)C [Example 284]" measured_property=pIC50 result="> 9.00"
compound="CC(C)(O)COc1cc2ncc(-c3cc(F)c(N)nc3F)n2cc1S(=O)(=O)C(C)(C)C [Example 28]" measured_property=pIC50 result="7.70 to 8.60"
compound="COc1cc2ncc(-c3cc(F)c(OC)c(NS(=O)(=O)c4ccccc4)c3)n2cc1S(=O)(=O)C(C)(C)C [Example 281]" measured_property=pIC50 result="> 9.00"
compound="COc1cc2ncc(-c3cc(F)c(OC)c4[nH]cnc34)n2cc1S(=O)(=O)C(C)(C)C [Example 117]" measured_property=pIC50 result="7.70 to 8.60"
compound="COc1cc2ncc(-c3cc(F)c(OC)c(NS(=O)(=O)c4cnn(CCO)c4)c3)n2cc1C(F)(F)F [Example 304]" measured_property=pIC50 result="7.70 to 8.60"
compound="CC(C)(C)S(=O)(=O)c1cn2c(-c3cc(F)c(N)nc3F)cnc2cc1OC[C@H]1C[C@H](O)C1 [Example 197]" measured_property=pIC50 result="> 9.00"
compound="COc1cc2ncc(-c3cnn4c(C)c(C)ccc34)n2cc1S(=O)(=O)C(C)(C)C [Example 107]" measured_property=pIC50 result="< 7.70"
compound="COc1cc2ncc(-c3cc(F)c(OC)c(NS(=O)(=O)c4cnc(O)nc4)c3)n2cc1S(=O)(=O)C(C)(C)C [Example 248]" measured_property=pIC50 result="7.70 to 8.60"
compound="CC(C)(C)S(=O)(=O)c1cn2c(-c3cc(F)c(N)nc3F)cnc2cc1OCC(F)(F)CN [Example 202]" measured_property=pIC50 result="8.60 to 9.00"
compound="COc1cc2ncc(-c3cc(F)c(OC)c(NS(=O)(=O)C4COC4)c3)n2cc1S(=O)(=O)C(C)(C)C [Example 142]" measured_property=pIC50 result="8.60 to 9.00"
compound="C[C@@H](O)CCOc1cc2ncc(-c3cc(F)c(N)nc3F)n2cc1S(=O)(=O)C(C)(C)C [Example 36]" measured_property=pIC50 result="7.70 to 8.60"
compound="CC(C)(C)S(=O)(=O)c1cn2c(-c3cnc4[nH]nnc4c3)cnc2cc1OCCO [Example 231]" measured_property=pIC50 result="< 7.70"
compound="COc1cc2ncc(-c3cccc(NS(=O)(=O)C4(CO)CC4)c3)n2cc1S(=O)(=O)C(C)(C)C [Example 179]" measured_property=pIC50 result="7.70 to 8.60"
compound="Cn1ccc(-c2cc3ncc(-c4cc(F)c(N)nc4F)n3cc2S(=O)(=O)C(C)(C)C)n1 [Example 27]" measured_property=pIC50 result="< 7.70"
compound="COc1cc2ncc(-c3cc(F)c(OC)c(NC(=O)Cc4ccn(C)n4)c3)n2cc1S(=O)(=O)C(C)(C)C [Example 298]" measured_property=pIC50 result="7.70 to 8.60"
compound="CC(C)(C)S(=O)(=O)c1cn2c(-c3cnc4[nH]ccc4c3)cnc2cc1OCCO [Example 53]" measured_property=pIC50 result="8.60 to 9.00"
compound="COc1cc2ncc(-c3cnn4ccccc34)n2cc1S(=O)(=O)C(C)(C)C [Example 112]" measured_property=pIC50 result="< 7.70"
compound="COC(=O)Nc1ccc(-c2cnc3cc(OC)c(S(=O)(=O)C(C)(C)C)cn23)cn1 [Example 9]" measured_property=pIC50 result="< 7.70"
compound="COc1cc2ncc(-c3cc(C)c(OC)c(NS(=O)(=O)c4cnn(C)c4)c3)n2cc1S(=O)(=O)C(C)(C)C [Example 286]" measured_property=pIC50 result="> 9.00"
compound="COc1cc2ncc(-c3ccn4nccc4c3)n2cc1S(=O)(=O)C(C)(C)C [Example 94]" measured_property=pIC50 result="< 7.70"
compound="CC(C)(C)S(=O)(=O)c1cn2c(-c3cc(F)c(N)nc3F)cnc2cc1CO [Example 39]" measured_property=pIC50 result="< 7.70"
compound="COc1cc2ncc(-c3ccc(N)nc3F)n2cc1S(=O)(=O)C1CC1 [Example 66]" measured_property=pIC50 result="< 7.70"
compound="C[C@@H](CO)COc1cc2ncc(-c3cc(Cl)c(N)nc3F)n2cc1S(=O)(=O)C(C)(C)C [Example 201]" measured_property=pIC50 result="8.60 to 9.00"
compound="CC(C)(C)S(=O)(=O)c1cn2c(-c3cc(F)c(N)nc3F)cnc2cc1-c1cn[nH]c1 [Example 31]" measured_property=pIC50 result="7.70 to 8.60"
compound="COc1cc2ncc(-c3cccc(NS(=O)(=O)c4cnn(C)c4)c3)n2cc1S(=O)(=O)C(C)(C)C [Example 294]" measured_property=pIC50 result="> 9.00"
compound="CC(C)(C)S(=O)(=O)c1cn2c(-c3cnc4[nH]cc(F)c4c3)cnc2cc1OCCO [Example 220]" measured_property=pIC50 result="> 9.00"
compound="CC(C)(C)S(=O)(=O)c1cn2c(-c3cc(F)c(N)nc3F)cnc2cc1OCCN1CCNCC1 [Example 21]" measured_property=pIC50 result="7.70 to 8.60"
compound="COc1cc2ncc(-c3cc(F)c4nc(C)cn4c3)n2cc1S(=O)(=O)C(C)(C)C [Example 109]" measured_property=pIC50 result="< 7.70"
compound="COC1(COc2cc3ncc(-c4cc(F)c(N)nc4F)n3cc2S(=O)(=O)C(C)(C)C)COC1 [Example 35]" measured_property=pIC50 result="7.70 to 8.60"
